Property: kcat/Km; scope: individual proteins
Substrate: p-NP-C4
TEST_CONDITIONS: pH 7; 25 °C

Given unnamed (protein) MTEPTVARPDIDPVLKMLLDTFPVTFTAADGVEVARARLRQLKTPPELLPELRIEERTVGYDGLTDIPVRVYWPPVVRDNLPVVVYYHGGGWSLGGLDTHDPVARAHAVGAQAIVVSVDYRLAPEHPYPAGIDDSWAALRWVGENAAELGGDPSRIAVAGDSAGGNISAVMAQLARDVGGPPLVFQLLWYPTTMADLSLPSFTENADAPILDRDVIDAFLAWYVPGLDISDHTMLPTTLAPGNADLSGLPPAFIGTAEHDPLRDDGACYAELLTAAGVSVELSNEPTMVHGYVNFALVVPAAAEATGRGLAALKRALHA , state its recorded kcat/Km.
3.7e+06 s⁻¹ M⁻¹

// lookup kcat/Km for unnamed (protein) MLDMPIDPVYYQLAEYFDSLPKFDQFSSAREYREAINRIYEERNRQLSQHERVERVEDRTIKGRNGDIRVRVYQQKPDSPVLVYYHGGGFVICSIESHDALCRRIARLSNSTVVSVDYRLAPEHKFPAAVYDCYDATKWVAENAEELRIDPSKIFVGGDSAGGNLAAAVSIMARDSGEDFIKHQILIYPVVNFVAPTPSLLEFGEGLWILDQKIMSWFSEQYFSREEDKFNPLASVIFADLENLPPALIITAEYDPLRDEGEVFGQMLRRAGVEASIVRYRGVLHGFINYYPVLKAARDAINQIAALLVFD
3.5e+06 s⁻¹ M⁻¹

Give its kcat/Km value. Item: unnamed (protein) MVLKQRANYLGFLIVFFTAFLVEAVPIKRQSNSTVDSLPPLIPSRTSAPSSSPSTTDPEAPAMSRNGPLPSDVETKYGMALNATSYPDSVVQAMSIDGGIRAATSQEINELTYYTTLSANSYCRTVIPGATWDCIHCDATEDLKIIKTWSTLIYDTNAMVARGDSEKTIYIVFRGSSSIRNWIADLTFVPVSYPPVSGTKVHKGFLDSYGEVQNELVATVLDQFKQYPSYKVAVTGHSLGGATALLCALDLYQREEGLSSSNLFLYTQGQPRVGDPAFANYVVSTGIPYRRTVNERDIVPHLPPAAFGFLHAGEEYWITDNSPETVQVCTSDLETSDCSNSIVPFTSVLDHLSYFGINTGLCT
200000 s⁻¹ M⁻¹

Entry unnamed (protein) MRSSLVLFFVSAWTALASPIRREVSQDLFNQFNLFAQYSAAAYCGKNNDAPAGTNITCTGNACPEVEKADATFLYSFEDSGVGDVTGFLALDNTNKLIVLSFRGSRSIENWIGNLNFDLKEINDICSGCRGHDGFTSSWRSVADTLRQKVEDAVREHPDYRVVFTGHSLGGALATVAGADLRGNGYDIDVFSYGAPRVGNRAFAEFLTVQTGGTLYRITHTNDIVPRLPPREFGYSHSSPEYWIKSGTLVPVTRNDIVKIEGIDATGGNNQPNIPDIPAHLWYFGLIGTCL has what kcat/Km?
232000 s⁻¹ M⁻¹

***
Tell me the measured kcat/Km of unnamed (protein) MAKKDEHLRKPEWLKIKLNTNENYTGLKKLMRENNLHTVCEEAKCPNIHECWAVRRTATFMILGSVCTRACRFCAVKTGLPTELDLQEPERVADSVALMNLKHAVITAVARDDQKDGGAGIFAETVRAIRRKSPFTTIEVLPSDMGGNYDNLKTLMDTRPDILNHNIETVRRLTPRVRARATYDRSLEFLRRAKEMQPDIPTKSSIMIGLGETKEEIIEVMDDLLANNVDIMAIGQYLQPTKKHLKVQKYYHPDEFAELKEIAMQKGFSHCEAGPLVRSSYHADEQVNEASKKRQAQA , please.
66700 s⁻¹ M⁻¹
